Origin of the recorded values: paper PMC5540273

Each entry below lists one item and its recorded %Inh value.
# Test system: TESK1
# condition.notes: concentration: 1 μM, replicates: in singlicate; n = 1;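 note: KINOMEscan kinase panel screen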
Express your answer in %, writing the number without its unit.

Solved cases below.
>  <molecule>
COc1ccc(Nc2nccc(N3CCC(NC(=O)Nc4ccc5c(c4)OCO5)C3)n2)cc1 (centres unmarked)

>  <unit>
%

>  <result>
12

$$$$
>  <molecule>
C[C@H]1CC[C@@H](C(=O)Nc2ccccc2)CN1c1cc(-c2ccc3c(N)n[nH]c3c2)nc(N)n1

>  <unit>
%

>  <result>
26

$$$$
>  <molecule>
Cl.c1ccc(Cn2ncc3cc(Nc4ncnc5ccccc45)ccc32)cc1

>  <unit>
%

>  <result>
0

$$$$
>  <molecule>
CNc1nccc(-c2c(-c3ccc(F)cc3)ncn2C2CCN(C)CC2)n1

>  <unit>
%

>  <result>
3

$$$$
>  <molecule>
CC(C)(C)c1ccc(-n2cnc3c(N)ncnc32)cc1

>  <unit>
%

>  <result>
0

$$$$
>  <molecule>
COC(=O)c1c(-c2ccccc2)c2cc(Cl)ccc2c(=O)n1Cc1ccc(S(C)(=O)=O)cc1

>  <unit>
%

>  <result>
0

$$$$
>  <molecule>
CCCc1ccc(S(=O)(=O)NC2CCN(c3ccnc(Nc4ccc(OC)cc4)n3)C2)cc1 (centres unmarked)

>  <unit>
%

>  <result>
36

$$$$
>  <molecule>
CC(C)(C)OC(=O)NC1CCCN(c2cc(-c3ccc4c(N)n[nH]c4c3)nc(N)n2)C1 (centres unmarked)

>  <unit>
%

>  <result>
0

$$$$
>  <molecule>
N#Cc1ccc(Oc2ccc(Nc3ncnc4cc[nH]c34)cc2Cl)cc1

>  <unit>
%

>  <result>
5

$$$$
>  <molecule>
Fc1ccc(Nc2nccc(-c3c(-c4ccc(Cl)cc4)nn4ncccc34)n2)cc1F

>  <unit>
%

>  <result>
16

$$$$

API: the following record is the query input.
Which %Inh is reported for this molecule? Cn1ccc2ncnc(Oc3ccc(NC(=O)Nc4cccnc4)c(Cl)c3)c21
0

###

# Tested on: CSNK1G1
# condition.notes: concentration: 1 μM, replicates: in singlicate; n = 1
quantity: %Inh (%)
Respond with the bare value in %.

>  <compound>
CN1c2ccc(-c3ccc(C(=O)NCCO)cc3)cc2-c2[nH]ncc2S1(=O)=O

>  <tgt>
CSNK1G1

>  <unit>
%

>  <%Inh>
0

$$$$
>  <compound>
Cn1cc(-c2ccc3c(c2)CCN3C(=O)Cc2cccc(C(F)(F)F)c2)c2c(N)ncnc21

>  <tgt>
CSNK1G1

>  <unit>
%

>  <%Inh>
0

$$$$
>  <compound>
CCc1nc(-c2cccc(C)c2)c(-c2ccnc(NC(=O)c3ccccc3)c2)s1

>  <tgt>
CSNK1G1

>  <unit>
%

>  <%Inh>
0

$$$$
>  <compound>
O=C(Nc1ccccc1F)NC1CCN(c2ccnc(Nc3ccc(F)cc3)n2)C1 (stereo not drawn)

>  <tgt>
CSNK1G1

>  <unit>
%

>  <%Inh>
0

$$$$
>  <compound>
OCCOCCn1ccc2ncnc(Nc3ccc(Oc4cccc(Cl)c4)c(Cl)c3)c21

>  <tgt>
CSNK1G1

>  <unit>
%

>  <%Inh>
0

$$$$

# query: %Inh | item CCC(CC)(CC)n1cnc2c(N)ncnc21 | system: CSNK1G1
4

Try this compound next: CC(=O)Nc1n[nH]c2ncc(-c3ccccc3)cc12
0

Moving on to FC(F)(F)c1ccc(-c2cc(-c3c[nH]nc3-c3ccccn3)ccn2)cc1
10

Also check Nc1n[nH]c2nnc(-c3ccccc3)cc12
7

###

Listed here: items and their measured %Inh.
# Test system: BRSK1
# condition.notes: concentration: 1 μM, replicates: in singlicate; n = 1
Number in %, nothing else.

Worked examples, 3 compounds total:
>  <compound>
Cl.O=S(=O)(c1cccc(F)c1)c1ccc(Nc2ncnc3cc(Br)sc23)cc1Cl [GSK306886]

>  <tgt>
BRSK1

>  <%Inh, %>
0

$$$$
>  <compound>
O=C(Nc1n[nH]c2nc(-c3ccco3)c(Br)cc12)c1ccc(CN2CCCC2)cc1.O=C(O)[C@H](O)[C@@H](O)C(=O)O [SB-742352]

>  <tgt>
BRSK1

>  <%Inh, %>
51

$$$$
>  <compound>
Nc1nc(-c2ccc3c(N)n[nH]c3c2)cc(N2CCC[C@@H](C(=O)Nc3ccccc3)C2)n1.O=C(O)C(F)(F)F.O=C(O)C(F)(F)F [GSK2288359]

>  <tgt>
BRSK1

>  <%Inh, %>
0

$$$$

// next item, %Inh requested
For the compound shown here, CCc1nc(-c2cccc(C)c2)c(-c2ccnc(NC(=O)c3ccccc3)c2)s1 , give the reported %Inh.
0

###

# Test system: CDK4
# condition.notes: concentration: 1 μM, replicates: in singlicate; n = 1
Please respond with Yes when measured %Inh is strictly beneath 20%, and with No in all other cases.

Look over these answered cases.
>  <compound>
O=C(Nc1n[nH]c2nc(-c3ccco3)c(Br)cc12)c1ccc(CN2CCCC2)cc1.O=C(O)[C@H](O)[C@@H](O)C(=O)O

>  <tgt>
CDK4

>  <category>
Yes

$$$$
>  <compound>
Fc1ccc(-c2ncn(CCCNCc3ccccc3)c2-c2ccncc2)cc1

>  <tgt>
CDK4

>  <category>
Yes

$$$$
>  <compound>
COc1ccc(-c2oc3ncnc(N)c3c2-c2ccc(OC)cc2)cc1

>  <tgt>
CDK4

>  <category>
No

$$$$
>  <compound>
FC(F)(F)c1ccc(-c2cc(-c3c[nH]nc3-c3ccccn3)ccn2)cc1

>  <tgt>
CDK4

>  <category>
No

$$$$
>  <compound>
NC(=O)c1sc(-n2cnc3ccccc32)cc1OCc1ccccc1F

>  <tgt>
CDK4

>  <category>
No

$$$$
>  <compound>
CS(=O)(=O)CCNCc1ccc(-c2ccc3ncnc(Nc4ccc(OCc5ccccc5)c(Cl)c4)c3c2)o1.Cl

>  <tgt>
CDK4

>  <category>
Yes

$$$$
>  <compound>
COC(=O)c1c(-c2ccccc2)c2cc(Cl)ccc2c(=O)n1Cc1ccc(S(C)(=O)=O)cc1

>  <tgt>
CDK4

>  <category>
Yes

$$$$
>  <compound>
COc1ccc(Nc2nccc(N3CCC(NC(=O)Nc4ccc5c(c4)OCO5)C3)n2)cc1 (stereo not drawn)

>  <tgt>
CDK4

>  <category>
No

$$$$
>  <compound>
CNc1nccc(-c2c(-c3ccc(F)cc3)ncn2C2CCN(C)CC2)n1

>  <tgt>
CDK4

>  <category>
Yes

$$$$
>  <compound>
CN1CCC(n2cnc(-c3ccc(F)cc3)c2-c2ccnc(NC3CCNCC3)n2)CC1

>  <tgt>
CDK4

>  <category>
No

$$$$

API: query returns whether the compound falls strictly under 20% in %Inh. Query: COc1ccc(NC(=O)c2ccc(-c3cc(-c4nnc(C)o4)ccc3C)cc2)cc1
Yes

Further, for Cc1ccc(O)cc1Nc1cc(C(F)(F)F)nc2ccc(-c3ccncc3)cc12 ?
Yes

Next compound up: Cl.O=S(=O)(c1cccc(F)c1)c1ccc(Nc2ncnc3cc(Br)sc23)cc1Cl
Yes

Then this compound: COc1cc2c(Nc3cccc(NC(=O)c4ccccc4)c3)ncnc2cc1OCCCN1CCOCC1
Yes

Same question for CCCc1ccc(S(=O)(=O)NC2CCN(c3ccnc(Nc4ccc(OC)cc4)n3)C2)cc1 (stereo not drawn) please.
No

Next entry: CCc1nc(-c2cccc(C)c2)c(-c2ccnc(NC(=O)c3ccccc3)c2)s1
Yes

Now give it for Cl.Fc1ccccc1COc1ccc(Nc2ncnc3ccc(-c4nnc(C(F)(F)F)o4)cc23)cc1Cl too.
No

###

# Test system: NLK
# condition.notes: concentration: 1 μM, replicates: in singlicate; n = 1
We begin with a simple list: items and their reported %Inh.
Enter your answer as a number in %; do not include the unit.

Would you please look over these solved cases?
>  <item.smiles>
CN1c2ccc(-c3ccc(C(=O)NCCO)cc3)cc2-c2[nH]ncc2S1(=O)=O

>  <result>
0

$$$$
>  <item.smiles>
FC(F)(F)c1ccc(-c2cc(-c3c[nH]nc3-c3ccccn3)ccn2)cc1

>  <result>
22

$$$$
>  <item.smiles>
COC(=O)c1cccc(NC(=O)NCCNc2ccnc(Nc3ccc(F)cc3)n2)c1

>  <result>
0

$$$$

Okay, next one:
Consider the molecule shown here: COc1cc2ncnc(Nc3ccc(OCc4ccccc4Br)c(Cl)c3)c2cc1OC.Cl What is its recorded %Inh?
26

###

# Tested on: SRPK2
# condition.notes: concentration: 1 μM, replicates: in singlicate; n = 1
quantity: %Inh (%)
Could you give me the number in %? Just the number is fine.

Sample records with %Inh:
>  <compound>
O=C(CCO)NCCn1ccc2ncnc(Nc3ccc(Oc4cccc(C(F)(F)F)c4)c(Cl)c3)c21

>  <tgt>
SRPK2

>  <unit>
%

>  <%Inh>
0

$$$$
>  <compound>
CS(=O)(=O)CCNCc1nc(-c2ccc3ncnc(Nc4ccc(OCc5cccc(F)c5)c(Cl)c4)c3c2)cs1.Cl [GW583340]

>  <tgt>
SRPK2

>  <unit>
%

>  <%Inh>
0

$$$$
>  <compound>
CNc1nccc(-c2c(-c3ccc(F)cc3)ncn2C2CCN(C)CC2)n1 [SB-222903]

>  <tgt>
SRPK2

>  <unit>
%

>  <%Inh>
0

$$$$
>  <compound>
Nc1nc(-c2cccnc2)c(-c2ccnc3ccccc23)s1 [GW684083]

>  <tgt>
SRPK2

>  <unit>
%

>  <%Inh>
4

$$$$
>  <compound>
CCCc1ccc(S(=O)(=O)NC2CCN(c3ccnc(Nc4ccc(OC)cc4)n3)C2)cc1 (stereo not drawn) [GSK1379737]

>  <tgt>
SRPK2

>  <unit>
%

>  <%Inh>
28

$$$$
>  <compound>
O=C(Nc1ccccc1F)NC1CCN(c2ccnc(Nc3ccc(F)cc3)n2)C1 (stereo not drawn) [GSK1379722]

>  <tgt>
SRPK2

>  <unit>
%

>  <%Inh>
0

$$$$
>  <compound>
Clc1cccc(-c2nc(Nc3ccncc3)c3ccccc3n2)c1 [GW873004]

>  <tgt>
SRPK2

>  <unit>
%

>  <%Inh>
43

$$$$
>  <compound>
Fc1cccc(COc2ccc(Nc3ncnc4nn5ccccc5c34)cc2Cl)c1 [GW689066]

>  <tgt>
SRPK2

>  <unit>
%

>  <%Inh>
30

$$$$

Field: next compound
Please look up its %Inh: FC(F)(F)c1cc(Nc2nccc(-c3c(-c4ccc(Cl)cc4)nn4ncccc34)n2)ccc1Cl [GW829351]
7
